FYI, the data here is from ChEMBL document CHEMBL5038679.

Quick reference: solubility at 1.5 h, 100 µM of the listed items.
ASSAY_TEXT: Aqueous solubility of compound in universal buffer at pH 7.4 at 100 uM incubated for 1.5 hrs under shaking condition by LC-MS/MS analysis
Assay type: physicochemical
EXPERIMENTAL_READOUT: solubility at 1.5 h, 100 µM (µM)

* [2H]C([2H])([2H])N1CC[C@@]23CCCC[C@@H]2[C@@H]1Cc1ccc(OC(F)(F)F)cc13 | 100
* COc1ccc2c(c1)[C@@]13CCCC[C@@H]1[C@@H](C2)N(C)CC3 | 94
* [2H]C([2H])([2H])N1CC[C@@]23CCCC[C@@H]2[C@@H]1Cc1ccc(C(F)(F)C(F)(F)F)cc13 | 82
* [2H]C([2H])([2H])N1CC[C@@]23CCCC[C@@H]2[C@@H]1Cc1ccc(C(F)F)cc13 | 94

----------
Quick reference: log10 of AUC at 24 h of the listed items.
ASSAY_TEXT: AUC in Sprague-Dawley rat brain at 2.5 mg/kg, po measured after 24 hrs by LC-MS/MS analysis
Type: ADME, organism-based
Design: route oral, time 24 hrs, dose 2.5 mg/kg
EXPERIMENTAL_READOUT: log10 of AUC at 24 h (log10 of the value in µg·h/mL)

* COc1ccc2c(c1)[C@@]13CCCC[C@@H]1[C@@H](C2)N(C)CC3 | -0.41
* [2H]C([2H])([2H])Oc1ccc2c(c1)[C@@]13CCCC[C@@H]1[C@@H](C2)N(C([2H])([2H])[2H])CC3 | -1.01
* [2H]C([2H])([2H])N1CC[C@@]23CCCC[C@@H]2[C@@H]1Cc1ccc(OC(F)(F)F)cc13 | 0.76
* CN1CC[C@@]23CCCC[C@@H]2[C@@H]1Cc1ccc(C(F)F)cc13 | 0.69
* [2H]C([2H])([2H])N1CC[C@@]23CCCC[C@@H]2[C@@H]1Cc1ccc(C(F)F)cc13 | 0.61
* CN1CC[C@@]23CCCC[C@@H]2[C@@H]1Cc1ccc(OC(F)(F)F)cc13 | 0.98

----------
Quick reference: AUC at 24 h of the listed items.
ASSAY_TEXT: AUC in Sprague-Dawley rat plasma at 2.5 mg/kg, po measured after 24 hrs by LC-MS/MS analysis
Type: ADME, organism-based
Design: route oral, time 24 hrs, dose 2.5 mg/kg
EXPERIMENTAL_READOUT: AUC at 24 h (ng·h/mL)

* [2H]C([2H])([2H])Oc1ccc2c(c1)[C@@]13CCCC[C@@H]1[C@@H](C2)N(C([2H])([2H])[2H])CC3 | 15
* CN1CC[C@@]23CCCC[C@@H]2[C@@H]1Cc1ccc(C(F)F)cc13 | 144
* COc1ccc2c(c1)[C@@]13CCCC[C@@H]1[C@@H](C2)N(C)CC3 | 21.3
* [2H]C([2H])([2H])N1CC[C@@]23CCCC[C@@H]2[C@@H]1Cc1ccc(OC(F)(F)F)cc13 | 205
* [2H]C([2H])([2H])N1CC[C@@]23CCCC[C@@H]2[C@@H]1Cc1ccc(C(F)F)cc13 | 353
* CN1CC[C@@]23CCCC[C@@H]2[C@@H]1Cc1ccc(OC(F)(F)F)cc13 | 131

----------
ASSAY_TEXT: Aqueous solubility of compound in universal buffer at pH 3 at 100 uM incubated for 1.5 hrs under shaking condition by LC-MS/MS analysis
Assay type: physicochemical
EXPERIMENTAL_READOUT: solubility at 1.5 h, 100 µM (µM)

- [2H]C([2H])([2H])N1CC[C@@]23CCCC[C@@H]2[C@@H]1Cc1ccc(C(F)(F)C(F)(F)F)cc13: 70
- CN1CC[C@@]23CCCC[C@@H]2[C@@H]1Cc1ccc(C(F)(F)C(F)(F)F)cc13: 77
- CN1CC[C@@]23CCCC[C@@H]2[C@@H]1Cc1ccc(OC(F)F)cc13: 76
- CN1CC[C@@]23CCCC[C@@H]2[C@@H]1Cc1ccc(C(F)(F)F)cc13: 77
- [2H]C([2H])([2H])N1CC[C@@]23CCCC[C@@H]2[C@@H]1Cc1ccc(OC(F)(F)F)cc13: 86
- [2H]C([2H])([2H])N1CC[C@@]23CCCC[C@@H]2[C@@H]1Cc1ccc(OC(F)F)cc13: 83
- COc1ccc2c(c1)[C@@]13CCCC[C@@H]1[C@@H](C2)N(C)CC3: 88
- [2H]C([2H])([2H])N1CC[C@@]23CCCC[C@@H]2[C@@H]1Cc1ccc(C(C)(F)F)cc13: 67
- [2H]C([2H])([2H])N1CC[C@@]23CCCC[C@@H]2[C@@H]1Cc1ccc(C(F)F)cc13: 70
- [2H]C([2H])([2H])Oc1ccc2c(c1)[C@@]13CCCC[C@@H]1[C@@H](C2)N(C([2H])([2H])[2H])CC3: 95.5
- [2H]C([2H])([2H])N1CC[C@@]23CCCC[C@@H]2[C@@H]1Cc1ccc(C(F)(F)F)cc13: 70
- CN1CC[C@@]23CCCC[C@@H]2[C@@H]1Cc1ccc(OC(F)(F)F)cc13: 60
- CN1CC[C@@]23CCCC[C@@H]2[C@@H]1Cc1ccc(C(C)(F)F)cc13: 90

----------
ASSAY_TEXT: Clearance in Sprague-Dawley rat plasma at 2.5 mg/kg, po measured after 24 hrs by LC-MS/MS analysis
Format: ADME, organism-based
Quick reference: log10 of CL/F of the listed items.
EXPERIMENTAL_READOUT: log10 of CL/F (log10 of the value in mL/min/kg)

• [2H]C([2H])([2H])N1CC[C@@]23CCCC[C@@H]2[C@@H]1Cc1ccc(C(F)F)cc13 = 2.13
• [2H]C([2H])([2H])N1CC[C@@]23CCCC[C@@H]2[C@@H]1Cc1ccc(OC(F)(F)F)cc13 = 2.31
• CN1CC[C@@]23CCCC[C@@H]2[C@@H]1Cc1ccc(C(F)F)cc13 = 2.46
• COc1ccc2c(c1)[C@@]13CCCC[C@@H]1[C@@H](C2)N(C)CC3 = 3.48
• CN1CC[C@@]23CCCC[C@@H]2[C@@H]1Cc1ccc(OC(F)(F)F)cc13 = 2.50
• [2H]C([2H])([2H])Oc1ccc2c(c1)[C@@]13CCCC[C@@H]1[C@@H](C2)N(C([2H])([2H])[2H])CC3 = 3.26

----------
TARGET_OF_ASSAY: Glutamate [NMDA] receptor
ASSAY_TEXT: Displacement of […] from NMDA receptor (unknown origin) expressed in HEK cell membrane incubated for 2 hrs by liquid scintillation counter analysis
pKi: −log10 of the molar value.
Quick reference: pKi of the listed items.
EXPERIMENTAL_READOUT: pKi

* CN1CC[C@@]23CCCC[C@@H]2[C@@H]1Cc1ccc(C(F)F)cc13 | < 5.00
* CN1CC[C@]23CCCC[C@@H]2[C@H]1Cc1ccc(O)cc13 | 6.31
* CN1CC[C@@]23CCCC[C@@H]2[C@@H]1Cc1ccc(OC(F)F)cc13 | < 5.00
* COc1ccc2c(c1)[C@@]13CCCC[C@@H]1[C@@H](C2)N(C)CC3 | 6.20
* CN1CC[C@@]23CCCC[C@@H]2[C@@H]1Cc1ccc(C(F)(F)C(F)(F)F)cc13 | < 5.00
* CN1CC[C@@]23CCCC[C@@H]2[C@@H]1Cc1ccc(C(C)(F)F)cc13 | < 5.00
* CN1CC[C@@]23CCCC[C@@H]2[C@@H]1Cc1ccc(OC(F)(F)F)cc13 | < 5.00
* CN1CC[C@@]23CCCC[C@@H]2[C@@H]1Cc1ccc(C(F)(F)F)cc13 | < 5.00

----------
ASSAY_TEXT: Cmax in Sprague-Dawley rat plasma at 2.5 mg/kg, po measured after 24 hrs by LC-MS/MS analysis
Type: ADME, organism-based
Set-up: route oral, dose 2.5 mg/kg, time 24 hrs
EXPERIMENTAL_READOUT: log10(Cmax) (log10 of the value in ng/mL)

• CN1CC[C@@]23CCCC[C@@H]2[C@@H]1Cc1ccc(C(F)F)cc13 = 1.43
• CN1CC[C@@]23CCCC[C@@H]2[C@@H]1Cc1ccc(OC(F)(F)F)cc13 = 1.08
• [2H]C([2H])([2H])N1CC[C@@]23CCCC[C@@H]2[C@@H]1Cc1ccc(OC(F)(F)F)cc13 = 1.51
• [2H]C([2H])([2H])N1CC[C@@]23CCCC[C@@H]2[C@@H]1Cc1ccc(C(F)F)cc13 = 1.82
• COc1ccc2c(c1)[C@@]13CCCC[C@@H]1[C@@H](C2)N(C)CC3 = 0.99
• [2H]C([2H])([2H])Oc1ccc2c(c1)[C@@]13CCCC[C@@H]1[C@@H](C2)N(C([2H])([2H])[2H])CC3 = 0.74
